# Condition Summary: in n-pentanol, 298.15 K
Assay Readout: solubility (mole fraction)
Number, no unit, nothing else.

Given the entry NC(=O)OCCCc1ccccc1 , report its measured solubility (mole fraction).
0.031

---

# Condition Summary: in methyl acetate, 293.15 K
Assay Readout: solubility (mole fraction)
Number, no unit, nothing else.

Given the entry NC(=O)OCCCc1ccccc1 , report its measured solubility (mole fraction).
0.0719

---

# Condition Summary: in methanol, 313.15 K
Assay Readout: solubility (mole fraction)

Given the entry NC(=O)OCCCc1ccccc1 , report its measured solubility (mole fraction).
0.0752

---

# Condition Summary: in ethanol, 308.15 K
Assay Readout: solubility (mole fraction)

Given the entry NC(=O)OCCCc1ccccc1 , report its measured solubility (mole fraction).
0.0493
